Type: in vivo, male CF-1 mice
condition notes: Plasma; EGCG 100 mg/kg i.g.; TOL (−)
measure name: Cmax
Could you write the number and then its unit?

Problem: Which measured Cmax value corresponds to O=C(O[C@@H]1Cc2c(O)cc(O)cc2O[C@@H]1c1cc(O)c(O)c(O)c1)c1cc(O)c(O)c(O)c1 [EGCG, (−)-epigallocatechin-3-gallate] ?
Solution: 1190 nM
